Taken from ChEMBL document CHEMBL1153308.

- Tested Target: Replicase polyprotein 1ab (Severe acute respiratory syndrome-related coronavirus, UniProt P0C6X7)
- Protocol Notes: Inhibition of SCV helicase assessed as duplex-DNA unwinding by FRET based assay
Parameter Measured: IC50

INSERT INTO measurements (structure_smiles, result) VALUES
  ('O=C(O)/C(O)=C/C(=O)c1ccccc1OCc1ccccc1', '> 50 µM'),
  ('O=C(O)/C(O)=C/C(=O)c1cccc(OCc2ccccc2)c1', '> 50 µM'),
  ('O=C(O)/C(O)=C/C(=O)c1ccc(OCc2ccc(Cl)cc2)cc1', '> 50 µM');
